System tested: mouse TMEM16A mutant R535A (Mus musculus, UniProt Q8BHY3, R535A)
Construct: expressed in transfected cells; host or cells: HEK293T
Assay info: Inside-out patch recording of 1PBC block, mutant R535A
Assay type: cell-based
Test parameters: R535A; V -20 mV
Endpoint: IC50
Param answer (str): number followed by unit.

Asked: Look up IC50: N#Cc1c(C(F)(F)F)cc(O)n2c1nc1ccccc12
Given back: 14.9 µM

* * *

System tested: mouse TMEM16A mutant N546A (Mus musculus, UniProt Q8BHY3, N546A)
Construct: expressed in transfected cells; host or cells: HEK293T
Assay info: Inside-out patch recording of 1PBC block, mutant N546A
Type: cell-based
Test parameters: 140 mV; 2 µM Ca2+
Description: HEK293T cells (ATCC CRL-1573) were maintained in Dulbecco’s modified Eagle’s medium (DMEM; Sigma-Aldrich) supplemented with 10 U ml^−1 penicillin, 0.1 mg ml^−1 streptomycin (Sigma-Aldrich), 2 mM L-glutamine (Sigma-Aldrich), and 10% FBS (Sigma-Aldrich) in a humidified atmosphere containing 5% CO2 at 37 °C. […]
Endpoint: pIC50
Quick note: pIC50 values are minus log10 of concentrations in mol/L.

Asked: Look up pIC50: N#Cc1c(C(F)(F)F)cc(O)n2c1nc1ccccc12
Given back: 6.50

* * *

System tested: mouse TMEM16A mutant I636A (Mus musculus, UniProt Q8BHY3, I636A)
Construct: expressed in transfected cells; host or cells: HEK293T
Assay info: Inside-out patch recording of 1PBC block, mutant I636A
Assay type: cell-based
Test parameters: -40 mV; 15 µM Ca2+
Endpoint: IC50 (µM)
Please give a number only; it is taken to be in µM.

Asked: Look up IC50: N#Cc1c(C(F)(F)F)cc(O)n2c1nc1ccccc12 [1PBC]
Given back: 10.2

* * *

System tested: mouse TMEM16A mutant N546A (Mus musculus, UniProt Q8BHY3, N546A)
Construct: expressed in transfected cells; host or cells: HEK293T
Assay info: Inside-out patch recording of 1PBC block, mutant N546A
Format: cell-based
Test parameters: -40 mV; 2 µM Ca2+
Procedure: HEK293T cells (ATCC CRL-1573) were maintained in Dulbecco’s modified Eagle’s medium (DMEM; Sigma-Aldrich) supplemented with 10 U ml^−1 penicillin, 0.1 mg ml^−1 streptomycin (Sigma-Aldrich), 2 mM L-glutamine (Sigma-Aldrich), and 10% FBS (Sigma-Aldrich) in a humidified atmosphere containing 5% CO2 at 37 °C. […]
Endpoint: pIC50
Quick note: pIC50 values are minus log10 of concentrations in mol/L.

Asked: Look up pIC50: N#Cc1c(C(F)(F)F)cc(O)n2c1nc1ccccc12
Given back: 5.99

* * *

System tested: mouse TMEM16A mutant I512A (Mus musculus, UniProt Q8BHY3, I512A)
Construct: expressed in transfected cells; host or cells: HEK293T
Assay info: Inside-out patch recording of 1PBC block, mutant I512A
Type: cell-based
Test parameters: -100 mV; 2 µM Ca2+
Endpoint: IC50

Asked: Look up IC50: N#Cc1c(C(F)(F)F)cc(O)n2c1nc1ccccc12
Given back: 66.1 µM

* * *

System tested: mouse TMEM16A mutant T539A (Mus musculus, UniProt Q8BHY3, T539A)
Construct: expressed in transfected cells; host or cells: HEK293T
Sequence (Q8BHY3 1-960 T539A): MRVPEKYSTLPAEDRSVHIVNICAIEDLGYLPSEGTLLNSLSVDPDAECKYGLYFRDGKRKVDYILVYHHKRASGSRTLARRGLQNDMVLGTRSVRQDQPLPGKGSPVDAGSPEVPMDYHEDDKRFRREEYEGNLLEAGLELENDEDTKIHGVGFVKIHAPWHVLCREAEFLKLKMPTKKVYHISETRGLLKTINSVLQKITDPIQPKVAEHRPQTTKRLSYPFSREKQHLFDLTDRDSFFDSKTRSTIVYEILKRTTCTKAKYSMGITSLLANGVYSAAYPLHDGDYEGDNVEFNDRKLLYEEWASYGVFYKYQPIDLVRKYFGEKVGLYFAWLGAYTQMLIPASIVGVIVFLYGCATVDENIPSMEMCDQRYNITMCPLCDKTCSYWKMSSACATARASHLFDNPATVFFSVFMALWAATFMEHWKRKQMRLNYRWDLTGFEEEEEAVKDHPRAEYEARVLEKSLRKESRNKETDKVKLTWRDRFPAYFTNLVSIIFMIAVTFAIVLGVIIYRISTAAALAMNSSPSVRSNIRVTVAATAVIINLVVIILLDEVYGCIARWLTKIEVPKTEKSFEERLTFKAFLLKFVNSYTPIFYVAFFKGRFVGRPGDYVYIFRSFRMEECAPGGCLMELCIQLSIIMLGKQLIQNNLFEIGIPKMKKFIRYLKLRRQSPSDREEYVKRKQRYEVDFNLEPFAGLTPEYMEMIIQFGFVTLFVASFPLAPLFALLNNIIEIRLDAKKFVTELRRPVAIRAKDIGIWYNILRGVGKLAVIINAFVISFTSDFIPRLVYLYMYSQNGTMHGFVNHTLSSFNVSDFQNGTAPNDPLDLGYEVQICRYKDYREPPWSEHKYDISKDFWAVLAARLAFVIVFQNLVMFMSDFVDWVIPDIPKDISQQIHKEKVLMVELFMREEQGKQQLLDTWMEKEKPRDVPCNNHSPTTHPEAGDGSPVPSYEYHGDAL
Assay info: Inside-out patch recording of 1PBC block, mutant T539A
Type: cell-based
Test parameters: T539A; V 20 mV
Endpoint: IC50 (µM)
Please give a number only; it is taken to be in µM.

Asked: Look up IC50: N#Cc1c(C(F)(F)F)cc(O)n2c1nc1ccccc12
Given back: 12.9

The origin of these recorded values is paper PMC9120017.
